System: Sarcoma 180 Ascites
Assay: Sarcoma 180 Ascites (S180a) antitumor screening
Type: in vivo, Female CFW mice
Conditions: Dose 20 mg/kg ip in water on day one; ILS ≧ 50% indicates activity
Protocol: Each of the compounds was evaluated in the Sarcoma 180 Ascites screen and at least some of the compounds were also evaluated in the L1210 Leukemia tumor models. L1210 screening was conducted according to a published method. […] The test was terminated after three times the mean survival time (MST) of the control group, surviving mice were counted as dying on that day. Activity was determined based on the percent increase in MST of test mice over controls (%ILS). […]
Reported %ILS values are given for each entry in this list.

| molecule | %ILS |
| --- | --- |
| Nc1ccn(C2OC(CO)C(O)C2O)c(=O)[n+]1[Pt]([NH2])([NH2])[Cl].O=[N+]([O-])[O-] (stereo not drawn) [cis-[Pt(NH₃)₂(cytidine)Cl]NO₃] | 1% |
| N.N.Nc1ccn(C2CC(O)C(CO)O2)c(=O)n1.[Cl-].[Cl-].[Pt+2] (stereo not drawn) [cis-[Pt(NH₃)₂(2′-deoxycytidine)Cl]Cl] | 34% |
| N.N.Nc1ccn(C2OC(CO)C(O)C2O)c(=O)n1.O=[N+]([O-])[O-].[Cl-].[Pt+2] (stereo not shown) | -3% |
| Nc1nc2c(c(=O)[nH]1)[n+]([Pt]([NH2])([NH2])[Cl])cn2C1OC(CO)C(O)C1O.O=[N+]([O-])[O-] (stereo not drawn) [cis-[Pt(NH₃)₂(guanosine)Cl]NO₃] | 15% |

###

tested on: Sarcoma 180 Ascites; assay: Sarcoma 180 Ascites (S180a) antitumor screening; assay type: in vivo, Female CFW mice; conditions: Dose 320 mg/kg ip; survivors per group of 6 mice at twice the MST of controls

| molecule | Surv |
| --- | --- |
| Nc1ccn(C2OC(CO)C(O)C2O)c(=O)[n+]1[Pt]([NH2])([NH2])[Cl].O=[N+]([O-])[O-] (stereo not drawn) [cis-[Pt(NH₃)₂(cytidine)Cl]NO₃] | 0/6 |
| N.N.Nc1ccn(C2OC(CO)C(O)C2O)c(=O)n1.O=[N+]([O-])[O-].[Cl-].[Pt+2] (stereo not shown) | 2/6 |
| Nc1nc2c(c(=O)[nH]1)[n+]([Pt]([NH2])([NH2])[Cl])cn2C1OC(CO)C(O)C1O.O=[N+]([O-])[O-] (stereo not drawn) [cis-[Pt(NH₃)₂(guanosine)Cl]NO₃] | 1/6 |
| N.N.Nc1ccn(C2CC(O)C(CO)O2)c(=O)n1.[Cl-].[Cl-].[Pt+2] (stereo not drawn) [cis-[Pt(NH₃)₂(2′-deoxycytidine)Cl]Cl] | 1/6 |

###

test system: Sarcoma 180 Ascites; assay: Sarcoma 180 Ascites (S180a) antitumor screening; assay type: in vivo, Female CFW mice; details: Dose 320 mg/kg ip in water on day one; ILS ≧ 50% indicates activity
Reported %ILS values are given for each entry in this list.

| compound | %ILS [%] |
| --- | --- |
| N.N.Nc1ccn(C2CC(O)C(CO)O2)c(=O)n1.[Cl-].[Cl-].[Pt+2] (stereo not drawn) [cis-[Pt(NH₃)₂(2′-deoxycytidine)Cl]Cl] | 51 |
| N.N.Nc1ccn(C2OC(CO)C(O)C2O)c(=O)n1.O=[N+]([O-])[O-].[Cl-].[Pt+2] (stereo not shown) | 45 |
| Nc1nc2c(c(=O)[nH]1)[n+]([Pt]([NH2])([NH2])[Cl])cn2C1OC(CO)C(O)C1O.O=[N+]([O-])[O-] (stereo not drawn) [cis-[Pt(NH₃)₂(guanosine)Cl]NO₃] | -45 |
| Nc1ccn(C2OC(CO)C(O)C2O)c(=O)[n+]1[Pt]([NH2])([NH2])[Cl].O=[N+]([O-])[O-] (stereo not drawn) [cis-[Pt(NH₃)₂(cytidine)Cl]NO₃] | 30 |

Attribution: patent EP0303437A2
